Listed binders paired with reported % Blocking
- Test System: T1, human CCR8 (human, UniProt P51685 1-355)
- T1 construct: Native CCR8 on human PBMC (CCR8+ CD3+ or CCR8+ CD4+ lymphocytes); also called chemokine (C-C motif) receptor 8
- T1 sequence (P51685 whole entry): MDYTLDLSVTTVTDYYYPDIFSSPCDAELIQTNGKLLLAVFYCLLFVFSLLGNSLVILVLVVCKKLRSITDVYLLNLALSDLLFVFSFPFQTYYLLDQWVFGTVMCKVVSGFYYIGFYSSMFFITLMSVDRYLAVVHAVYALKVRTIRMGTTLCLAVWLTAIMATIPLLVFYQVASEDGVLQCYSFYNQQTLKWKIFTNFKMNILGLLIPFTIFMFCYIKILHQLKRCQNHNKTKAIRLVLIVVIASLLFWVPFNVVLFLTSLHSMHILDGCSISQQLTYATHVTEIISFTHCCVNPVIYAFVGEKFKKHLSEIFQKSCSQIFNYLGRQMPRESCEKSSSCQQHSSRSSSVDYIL
- Experiment Notes: flow blocking, PBMC CCR8+CD4+; competitor PE-AB11
Response body: numeric value in %, unit text excluded.

Example entries and their recorded answers appear below.
Binder | Unit Abbrev | % Blocking
AB1 (antibody, V domains shown, Hybridoma monoclonal (mouse or rat); Same VH/VL entries as AB2; also called antibody 1; clone 1) VH: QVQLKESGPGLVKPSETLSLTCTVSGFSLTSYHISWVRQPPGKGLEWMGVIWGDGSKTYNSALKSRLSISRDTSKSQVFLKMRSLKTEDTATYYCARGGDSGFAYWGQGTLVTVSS VL: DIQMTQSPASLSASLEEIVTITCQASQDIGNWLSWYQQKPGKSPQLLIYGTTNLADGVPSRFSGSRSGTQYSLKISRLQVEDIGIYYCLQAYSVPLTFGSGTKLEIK | % | -5.61
AB3 (antibody, V domains shown, Hybridoma monoclonal; also called antibody 3; clone 3) VH: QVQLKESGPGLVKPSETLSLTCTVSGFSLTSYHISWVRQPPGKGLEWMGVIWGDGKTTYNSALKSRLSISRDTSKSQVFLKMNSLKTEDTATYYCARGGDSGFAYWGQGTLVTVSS VL: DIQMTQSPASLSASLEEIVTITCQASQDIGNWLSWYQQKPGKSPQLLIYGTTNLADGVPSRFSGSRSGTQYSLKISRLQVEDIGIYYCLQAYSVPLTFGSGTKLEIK | % | 4.59
AB4 (antibody, V domains shown, Hybridoma monoclonal; also called antibody 4; clone 4) VH: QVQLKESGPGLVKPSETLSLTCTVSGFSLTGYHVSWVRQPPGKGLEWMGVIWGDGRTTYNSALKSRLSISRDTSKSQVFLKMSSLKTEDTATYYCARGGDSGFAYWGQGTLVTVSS VL: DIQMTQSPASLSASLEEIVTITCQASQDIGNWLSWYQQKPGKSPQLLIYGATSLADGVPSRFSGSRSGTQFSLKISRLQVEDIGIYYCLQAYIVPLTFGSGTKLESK | % | 4.59
AB12 (antibody, V domains shown, Hybridoma monoclonal; also called antibody 12; clone 12) VH: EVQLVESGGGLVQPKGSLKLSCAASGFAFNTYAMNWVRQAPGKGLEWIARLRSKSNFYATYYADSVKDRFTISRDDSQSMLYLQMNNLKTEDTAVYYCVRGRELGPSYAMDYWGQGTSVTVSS VL: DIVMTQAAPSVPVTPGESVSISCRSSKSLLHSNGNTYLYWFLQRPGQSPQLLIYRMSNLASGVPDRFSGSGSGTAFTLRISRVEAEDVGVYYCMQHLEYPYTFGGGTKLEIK | % | 99
AB13 (antibody, V domains shown, Hybridoma monoclonal; also called antibody 13; clone 13) VH: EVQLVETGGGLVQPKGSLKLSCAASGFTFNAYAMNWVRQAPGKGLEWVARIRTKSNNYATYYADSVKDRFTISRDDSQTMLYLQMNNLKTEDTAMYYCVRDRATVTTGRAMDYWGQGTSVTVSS VL: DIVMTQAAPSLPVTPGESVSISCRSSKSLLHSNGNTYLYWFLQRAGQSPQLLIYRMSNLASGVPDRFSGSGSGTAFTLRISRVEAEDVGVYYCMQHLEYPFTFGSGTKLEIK | % | 98

% Blocking for AB15 (antibody, V domains shown, Hybridoma monoclonal; Same VH/VL entries as AB14; also called antibody 15; clone 15) VH: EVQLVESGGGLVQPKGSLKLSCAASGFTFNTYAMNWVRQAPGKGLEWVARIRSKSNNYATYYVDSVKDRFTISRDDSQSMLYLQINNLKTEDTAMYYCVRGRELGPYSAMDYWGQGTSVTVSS VL: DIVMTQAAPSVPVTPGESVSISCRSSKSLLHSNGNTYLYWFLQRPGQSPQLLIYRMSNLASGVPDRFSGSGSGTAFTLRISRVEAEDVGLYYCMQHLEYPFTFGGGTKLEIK ?
85.2
